Cited source for all entries: PubChem BioAssay AID1903

I'd be grateful if you could share measured inhibition for these entries.
molecular target: Large T antigen (Simian virus 40) (UniProt P03070); assay: SV40 large T antigen inhibitors, biochemical (AID 1903); conditions: SV40 large T antigen ATPase/helicase inhibition assay; at 20 µM; stronger effect = higher value
Sequence (P03070 whole entry, looked up): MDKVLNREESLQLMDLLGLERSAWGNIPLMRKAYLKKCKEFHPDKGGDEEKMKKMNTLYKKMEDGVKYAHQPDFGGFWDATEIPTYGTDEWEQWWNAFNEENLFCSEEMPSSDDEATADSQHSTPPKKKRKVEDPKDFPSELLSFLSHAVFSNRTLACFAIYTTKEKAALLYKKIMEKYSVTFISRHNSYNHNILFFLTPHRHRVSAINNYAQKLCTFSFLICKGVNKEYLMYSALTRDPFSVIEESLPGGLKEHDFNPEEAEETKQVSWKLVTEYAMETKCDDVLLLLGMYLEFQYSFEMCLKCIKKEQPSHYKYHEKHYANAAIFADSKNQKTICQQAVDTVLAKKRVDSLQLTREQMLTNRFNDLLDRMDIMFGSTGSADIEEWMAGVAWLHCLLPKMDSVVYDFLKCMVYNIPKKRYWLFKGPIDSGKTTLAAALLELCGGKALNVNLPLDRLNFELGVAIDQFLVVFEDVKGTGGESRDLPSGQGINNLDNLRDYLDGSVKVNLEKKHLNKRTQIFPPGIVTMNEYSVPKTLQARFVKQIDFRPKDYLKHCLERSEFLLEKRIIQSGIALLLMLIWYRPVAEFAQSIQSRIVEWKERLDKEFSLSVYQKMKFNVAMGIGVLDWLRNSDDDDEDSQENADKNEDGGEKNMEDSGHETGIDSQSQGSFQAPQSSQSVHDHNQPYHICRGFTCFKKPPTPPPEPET
In all, about 310,000 compounds went through this assay and about 1,200 (0.39%) were called active. A selection follows. Potency and affinity values are given separately.
Respond numerically; units are % and should not be typed.

Prompt: Look up inhibition with Large T antigen (Simian virus 40) (UniProt P03070) for this molecule: "Cc1ccc(C(=O)Nc2nnc(CC(=O)N/N=C/c3ccc(O)c(O)c3)s2)cc1"
Response: 19.4

Prompt: Look up inhibition with Large T antigen (Simian virus 40) (UniProt P03070) for this molecule: "COc1ccc(/C=C/c2nc3ccccc3c(=O)n2-c2cccc(C(=O)O)c2)cc1"
Response: 12.5

Prompt: Look up inhibition with Large T antigen (Simian virus 40) (UniProt P03070) for this molecule: "Fc1ccc(-c2nc3cnccn3c2NC2CCCC2)cc1"
Response: 3.13

Prompt: Look up inhibition with Large T antigen (Simian virus 40) (UniProt P03070) for this molecule: "COc1cc(-c2nc3cnccn3c2Nc2ccc(C(C)C)cc2)ccc1O"
Response: 9.43

Prompt: Look up inhibition with Large T antigen (Simian virus 40) (UniProt P03070) for this molecule: "CCCC(=O)N(c1ccc2oc(=O)sc2c1)S(=O)(=O)c1cccs1"
Response: 34.4

Prompt: Look up inhibition with Large T antigen (Simian virus 40) (UniProt P03070) for this molecule: "O=C(c1ccc(Oc2ccc(C(F)(F)F)cc2[N+](=O)[O-])cc1)N1CCOCC1"
Response: 1.7

Prompt: Look up inhibition with Large T antigen (Simian virus 40) (UniProt P03070) for this molecule: "CC(C)C(=O)N(c1ccc2oc(=O)sc2c1)S(=O)(=O)c1ccccc1"
Response: 25.6

Prompt: Look up inhibition with Large T antigen (Simian virus 40) (UniProt P03070) for this molecule: "OCC1(CCCc2ccccc2)CCN(C2CCC2)CC1"
Response: 4.13

Prompt: Look up inhibition with Large T antigen (Simian virus 40) (UniProt P03070) for this molecule: "CC(C)C(=O)N(c1ccc2oc(=O)sc2c1)S(=O)(=O)c1cccs1"
Response: 22.8

Prompt: Look up inhibition with Large T antigen (Simian virus 40) (UniProt P03070) for this molecule: "CSc1ccc(C#N)cc1NC(=O)c1cccnc1Cl"
Response: 1.02

Prompt: Look up inhibition with Large T antigen (Simian virus 40) (UniProt P03070) for this molecule: "CCc1ccc(NC(=O)C(=O)N/N=C(\C)CC(=O)Nc2ccccn2)cc1"
Response: 11.4

Prompt: Look up inhibition with Large T antigen (Simian virus 40) (UniProt P03070) for this molecule: "CCOc1cc(/C=C/c2ccc3cccc([N+](=O)[O-])c3n2)ccc1O"
Response: 3.61

Prompt: Look up inhibition with Large T antigen (Simian virus 40) (UniProt P03070) for this molecule: "CN1C(C(=O)Nc2ccc(OC(F)(F)F)cc2)=CC(c2ccco2)=NS1(=O)=O"
Response: 8.59

Prompt: Look up inhibition with Large T antigen (Simian virus 40) (UniProt P03070) for this molecule: CCC(C)NC(=O)CN(c1ccc(Cl)c(Cl)c1)S(C)(=O)=O (stereo not given)
Response: 2.27

Prompt: Look up inhibition with Large T antigen (Simian virus 40) (UniProt P03070) for this molecule: "CCCCn1c(SCC(N)=O)nnc1-c1ccco1"
Response: 8.33

Prompt: Look up inhibition with Large T antigen (Simian virus 40) (UniProt P03070) for this molecule: "COc1cc(-c2nc3cnccn3c2Nc2ccc(C)cc2)ccc1O"
Response: 37

Prompt: Look up inhibition with Large T antigen (Simian virus 40) (UniProt P03070) for this molecule: "CC(=O)c1c(NCCc2ccccc2)cc(C)oc1=O"
Response: -0.81

Prompt: Look up inhibition with Large T antigen (Simian virus 40) (UniProt P03070) for this molecule: O=C(Nc1ccccc1)c1ccc(NCC2CCCO2)c([N+](=O)[O-])c1 (stereo not given)
Response: 16.3

Prompt: Look up inhibition with Large T antigen (Simian virus 40) (UniProt P03070) for this molecule: "O=C(CSc1nc2ccccc2o1)N/N=C/c1ccc(C(=O)O)cc1"
Response: 16.5

Prompt: Look up inhibition with Large T antigen (Simian virus 40) (UniProt P03070) for this molecule: "c1cn2c(Nc3ccc4c(c3)OCCO4)c(-c3ccc(N4CCOCC4)cc3)nc2cn1"
Response: 29.1

Prompt: Look up inhibition with Large T antigen (Simian virus 40) (UniProt P03070) for this molecule: "COC(=O)c1ccccc1NS(=O)(=O)c1ccc(Cl)nc1"
Response: 4.72

Prompt: Look up inhibition with Large T antigen (Simian virus 40) (UniProt P03070) for this molecule: "CCn1c(/C=C/c2cc(Br)ccc2O)nc2ccccc2c1=O"
Response: 27

Prompt: Look up inhibition with Large T antigen (Simian virus 40) (UniProt P03070) for this molecule: "CO/N=C/C(=N\Nc1cc(OC)cc(OC)c1)C(=O)c1ccccc1"
Response: 9.31

Prompt: Look up inhibition with Large T antigen (Simian virus 40) (UniProt P03070) for this molecule: "COCCCNC(=O)COc1ccc(-c2nccc(-c3ccccn3)n2)cc1"
Response: 4.04

Prompt: Look up inhibition with Large T antigen (Simian virus 40) (UniProt P03070) for this molecule: "N#CC(=Cc1ccc(O)cc1)C(N)=C(C#N)C#N"
Response: 8.06

Prompt: Look up inhibition with Large T antigen (Simian virus 40) (UniProt P03070) for this molecule: "Cc1c([N+](=O)[O-])cc(S(=O)(=O)Nc2ccncc2)cc1[N+](=O)[O-]"
Response: 1.66

Prompt: Look up inhibition with Large T antigen (Simian virus 40) (UniProt P03070) for this molecule: "c1ccc(-c2nc3cnccn3c2Nc2ccc3c(c2)OCCO3)cc1"
Response: 9.23

Prompt: Look up inhibition with Large T antigen (Simian virus 40) (UniProt P03070) for this molecule: CC1(C(=O)O)CCC(C(=O)Nc2ccc(F)cc2)C1(C)C (stereo not given)
Response: 17.4

Prompt: Look up inhibition with Large T antigen (Simian virus 40) (UniProt P03070) for this molecule: "COc1ccc(-c2nc3cnccn3c2Nc2ccc3c(c2)OCO3)cc1"
Response: 21.4

Prompt: Look up inhibition with Large T antigen (Simian virus 40) (UniProt P03070) for this molecule: "Cc1oc2c(C)c(O)ccc2c(=O)c1-c1cnn(-c2ccccc2)c1"
Response: 12.9

Prompt: Look up inhibition with Large T antigen (Simian virus 40) (UniProt P03070) for this molecule: "Clc1ccc(-c2nc3cnccn3c2NC2CCCC2)cc1"
Response: 8.26

Prompt: Look up inhibition with Large T antigen (Simian virus 40) (UniProt P03070) for this molecule: "CC(/C=N/n1c(-c2ccco2)n[nH]c1=S)=C\c1ccco1"
Response: 28.2

Prompt: Look up inhibition with Large T antigen (Simian virus 40) (UniProt P03070) for this molecule: COC(=O)c1ccc(C(=O)NC2CCSc3ccccc32)cc1 (stereo not given)
Response: 6.81

Prompt: Look up inhibition with Large T antigen (Simian virus 40) (UniProt P03070) for this molecule: "Cc1ccsc1/C=N/n1c(-c2ccccc2)n[nH]c1=S"
Response: 18.6

Prompt: Look up inhibition with Large T antigen (Simian virus 40) (UniProt P03070) for this molecule: "O=C(CSc1nc2ccccc2o1)N/N=C/c1ccccc1"
Response: 12.4

Prompt: Look up inhibition with Large T antigen (Simian virus 40) (UniProt P03070) for this molecule: "CCN(CC)S(=O)(=O)c1ccc(N=Nc2c(N)[nH]c(=O)[nH]c2=O)cc1"
Response: 12.4

Prompt: Look up inhibition with Large T antigen (Simian virus 40) (UniProt P03070) for this molecule: Cc1ccc(N(C(=O)CNC(=O)c2ccco2)C(C(=O)NC2CCCCC2)c2ccncc2)c(C)c1 (stereo not given)
Response: 23.9

Prompt: Look up inhibition with Large T antigen (Simian virus 40) (UniProt P03070) for this molecule: "CCn1c(/C=C/c2ccc(O)cc2)nc2ccccc2c1=O"
Response: 26.9

Prompt: Look up inhibition with Large T antigen (Simian virus 40) (UniProt P03070) for this molecule: "Cc1ccc(-c2nc3cnccn3c2Nc2ccc3c(c2)OCO3)cc1"
Response: 25.3

Prompt: Look up inhibition with Large T antigen (Simian virus 40) (UniProt P03070) for this molecule: "CC(=O)Nc1cc(-c2ccccc2)ccc1O"
Response: 26.7

Prompt: Look up inhibition with Large T antigen (Simian virus 40) (UniProt P03070) for this molecule: CCOC(=O)CN1C(=O)NC(C)(c2ccc(OC(F)F)cc2)C1=O (stereo not given)
Response: 11.6

Prompt: Look up inhibition with Large T antigen (Simian virus 40) (UniProt P03070) for this molecule: "CCOc1ccc(CCNC(=O)CCC(=O)Nc2ccc3nc(N4CCN(C)CC4)cc(C)c3c2)cc1OCC"
Response: 2.93

Prompt: Look up inhibition with Large T antigen (Simian virus 40) (UniProt P03070) for this molecule: "O=C1OCC/C1=C\c1ccccc1"
Response: 6.44

Prompt: Look up inhibition with Large T antigen (Simian virus 40) (UniProt P03070) for this molecule: "O=C(O)c1ccc(-n2c(/C=C/c3ccccc3)nc3ccccc3c2=O)cc1"
Response: 13.9

Prompt: Look up inhibition with Large T antigen (Simian virus 40) (UniProt P03070) for this molecule: "Cn1c(=O)c(C(=O)c2ccc(S(C)(=O)=O)c(Cl)c2Cl)c(O)c2ccccc21"
Response: 17
